Below, each entry is listed alongside its reported fold-difference.
biological target: the molecule itself; assay: native mass spectrometry; KD compared to the wild type IgG4 CH2-CH3 fragment
Your answer should be a plain number; it is taken to be in fold.

INSERT INTO assay_data (protein, measured_result) VALUES
  ('CH2-CH3 fragment of human IgG4 with K370E (other, UniProt P01861-1 221-327, looked up, name in EU numbering, range 341-447; As m7, with the mutation; also called G4-K370E; not shown: N-terminal 6 amino acid His tag) GQPREPQVYTLPPSQEEMTKNQVSLTCLVEGFYPSDIAVEWESNGQPENNYKTTPPVLDSDGSFFLYSRLTVDKSRWQEGNVFSCSVMHEALHNHYTQKSLSLSLGK', 24);

Please give the measured fold-difference for this protein: CH2-CH3 fragment of human IgG4 with F405A (other, UniProt P01861-1 221-327, looked up, name in EU numbering, range 341-447; As m7, with the mutation; also called G4-F405A; not shown: N-terminal 6 amino acid His tag) GQPREPQVYTLPPSQEEMTKNQVSLTCLVKGFYPSDIAVEWESNGQPENNYKTTPPVLDSDGSFALYSRLTVDKSRWQEGNVFSCSVMHEALHNHYTQKSLSLSLGK
0.0025

Please give the measured fold-difference for this protein: CH2-CH3 fragment of human IgG4 with R409L (other, UniProt P01861-1 221-327, looked up, name in EU numbering, range 341-447; As m7, with the mutation; also called G4-R409L; not shown: N-terminal 6 amino acid His tag) GQPREPQVYTLPPSQEEMTKNQVSLTCLVKGFYPSDIAVEWESNGQPENNYKTTPPVLDSDGSFFLYSLLTVDKSRWQEGNVFSCSVMHEALHNHYTQKSLSLSLGK
3.2

Please give the measured fold-difference for this protein: CH2-CH3 fragment of human IgG4 with R409M (other, UniProt P01861-1 221-327, looked up, name in EU numbering, range 341-447; As m7, with the mutation; also called G4-R409M; not shown: N-terminal 6 amino acid His tag) GQPREPQVYTLPPSQEEMTKNQVSLTCLVKGFYPSDIAVEWESNGQPENNYKTTPPVLDSDGSFFLYSMLTVDKSRWQEGNVFSCSVMHEALHNHYTQKSLSLSLGK
16

Data credit: patent US20170233497A1
